Measured IC50 by item
# Tested on: L1210
# test method notes: Growth inhibition in L1210 mouse Leukemia cells for a treatment time of 48 hr
# Format: functional, cell-based
# condition description: L1210, 48 h
quantity kind: IC50 (nM)

compound: O=c1[nH]cc(F)c(=O)[nH]1 [FLUOROURACIL]
quantity kind: IC50
assay value: 125

compound: CN(CCBr)P(=O)(NCC1OC(n2cc(F)c(=O)[nH]c2=O)CC1O)OCc1ccc([N+](=O)[O-])o1 (configuration not stated)
quantity kind: IC50
assay value: 34
